Provide the recorded pIC50 for the entries that follow.
- test-target: human metabotropic glutamic acid receptor 1a (mGluR1a) (Homo sapiens, UniProt Q13255)
- Sequence (Q13255 19-1194): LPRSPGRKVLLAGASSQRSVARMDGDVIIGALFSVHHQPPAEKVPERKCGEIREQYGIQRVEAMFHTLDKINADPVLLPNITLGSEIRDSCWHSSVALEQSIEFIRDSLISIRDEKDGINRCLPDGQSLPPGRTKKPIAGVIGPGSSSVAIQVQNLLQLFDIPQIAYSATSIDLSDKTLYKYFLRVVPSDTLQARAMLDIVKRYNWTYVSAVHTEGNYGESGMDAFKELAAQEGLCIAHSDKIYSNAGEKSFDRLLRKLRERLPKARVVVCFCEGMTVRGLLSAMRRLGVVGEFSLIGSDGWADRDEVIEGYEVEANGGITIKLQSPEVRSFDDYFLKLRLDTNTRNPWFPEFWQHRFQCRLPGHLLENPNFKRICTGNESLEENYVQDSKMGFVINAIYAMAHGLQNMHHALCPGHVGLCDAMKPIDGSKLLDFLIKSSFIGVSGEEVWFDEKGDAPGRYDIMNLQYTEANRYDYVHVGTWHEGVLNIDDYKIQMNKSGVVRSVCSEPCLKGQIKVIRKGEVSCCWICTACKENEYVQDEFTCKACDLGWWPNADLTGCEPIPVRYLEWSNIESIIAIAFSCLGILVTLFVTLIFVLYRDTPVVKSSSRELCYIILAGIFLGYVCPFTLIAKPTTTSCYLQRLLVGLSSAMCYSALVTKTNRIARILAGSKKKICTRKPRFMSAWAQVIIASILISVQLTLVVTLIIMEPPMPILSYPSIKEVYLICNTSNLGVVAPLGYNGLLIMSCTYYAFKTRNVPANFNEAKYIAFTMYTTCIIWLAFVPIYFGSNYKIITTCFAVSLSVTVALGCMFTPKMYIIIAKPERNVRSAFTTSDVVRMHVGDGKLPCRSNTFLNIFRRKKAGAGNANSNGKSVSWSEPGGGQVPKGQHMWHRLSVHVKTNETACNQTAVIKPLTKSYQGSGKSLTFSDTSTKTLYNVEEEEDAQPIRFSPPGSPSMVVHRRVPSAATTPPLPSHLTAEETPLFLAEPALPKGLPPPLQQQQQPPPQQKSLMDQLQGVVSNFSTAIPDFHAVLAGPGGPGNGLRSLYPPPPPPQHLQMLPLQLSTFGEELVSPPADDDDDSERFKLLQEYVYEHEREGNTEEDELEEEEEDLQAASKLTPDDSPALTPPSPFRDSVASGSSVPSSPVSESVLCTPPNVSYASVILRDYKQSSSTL
- method-summary: Measurement of intracellular calcium concentration (FLIPR) in mGluR1a-expressing CHO cells
- measurement-parameters: Fluo-3, compound added 5 minutes before 10 μM glutamic acid, read-out: IC50 (inhibition of the calcium increase caused by 10 μM glutamic acid)
One number for each entry, as −log10 of the molar value.

Some compounds with known pIC50 results, for comparison:
chemical_structure=C[C@H](O)c1nc(-c2ccnc(N3CCN(C(=O)CCC(C)(C)C)CC3)c2)no1 observed_measurement=7.80
chemical_structure=C[C@@H](O)c1nc(-c2ccnc(N3CCN(C(=O)OCC(C)(C)C)CC3)c2)no1 observed_measurement=8.02
chemical_structure=CNc1nc(-c2ccnc(N3CCN(C(=O)OCC(C)(C)C)CC3)c2)no1 observed_measurement=7.89
chemical_structure=CC(C)(C)COC(=O)N1CCN(c2nc3ccccc3o2)CC1 observed_measurement=7.48

Name the recorded pIC50 of the item Cc1ccnc(N2CCN(C(=O)OCC(C)(C)C)CC2)c1 in your answer.
8.16
